Source of measurements: patent US20260125400A1

Biological target: TYK2 (Homo sapiens)
Construct: Degradation of TYK2 in cells was quantitatively measured using Meso Scale Discovery (MSD) technology; endogenous in cells; host or cells: OCI-LY10
Sequence (P29597 whole entry): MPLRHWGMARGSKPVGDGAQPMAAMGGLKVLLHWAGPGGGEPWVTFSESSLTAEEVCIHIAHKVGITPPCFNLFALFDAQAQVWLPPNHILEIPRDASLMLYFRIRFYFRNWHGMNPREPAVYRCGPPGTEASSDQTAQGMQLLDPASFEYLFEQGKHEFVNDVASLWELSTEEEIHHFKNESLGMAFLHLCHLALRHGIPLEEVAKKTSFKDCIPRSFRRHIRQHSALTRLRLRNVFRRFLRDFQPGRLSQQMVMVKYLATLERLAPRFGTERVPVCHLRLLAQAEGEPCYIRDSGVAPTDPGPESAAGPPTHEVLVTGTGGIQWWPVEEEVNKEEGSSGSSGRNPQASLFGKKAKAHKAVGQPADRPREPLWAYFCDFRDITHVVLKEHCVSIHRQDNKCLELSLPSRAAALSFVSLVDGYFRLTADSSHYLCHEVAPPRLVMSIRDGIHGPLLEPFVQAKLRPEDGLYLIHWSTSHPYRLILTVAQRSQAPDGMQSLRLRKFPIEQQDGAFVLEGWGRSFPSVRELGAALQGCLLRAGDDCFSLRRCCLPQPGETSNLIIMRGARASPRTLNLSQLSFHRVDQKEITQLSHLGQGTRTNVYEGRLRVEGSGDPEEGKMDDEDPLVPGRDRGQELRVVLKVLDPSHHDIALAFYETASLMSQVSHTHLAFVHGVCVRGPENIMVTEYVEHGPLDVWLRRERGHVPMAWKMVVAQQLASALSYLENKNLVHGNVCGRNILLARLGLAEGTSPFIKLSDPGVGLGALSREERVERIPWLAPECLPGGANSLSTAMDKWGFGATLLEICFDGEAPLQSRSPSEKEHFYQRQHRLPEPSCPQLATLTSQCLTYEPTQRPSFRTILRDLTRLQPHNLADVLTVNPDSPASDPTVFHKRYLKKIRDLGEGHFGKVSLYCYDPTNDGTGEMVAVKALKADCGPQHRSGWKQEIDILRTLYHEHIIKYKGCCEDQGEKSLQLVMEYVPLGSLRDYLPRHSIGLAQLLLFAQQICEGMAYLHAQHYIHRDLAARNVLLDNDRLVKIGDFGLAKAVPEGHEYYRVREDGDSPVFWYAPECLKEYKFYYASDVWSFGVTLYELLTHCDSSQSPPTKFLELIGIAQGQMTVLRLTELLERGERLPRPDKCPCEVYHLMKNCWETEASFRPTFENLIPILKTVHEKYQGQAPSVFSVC
Assay: TYK2 MSD degradation in OCI-LY10 cells
Assay type: cell-based
Settings: TYK2 degradation in OCI-LY10 cells, 4 to 24 hours incubation
Parameter: TYK2 MSD OCI-LY10 Dmax %

compound="CNc1cc(N2CC3(CCN(c4cccc5c4n(C)c(=O)n5C4CCC(=O)NC4=O)CC3)c3ccccc32)nn2c(C(=O)NC3CC3)cnc12 (stereo not shown)" test_value="D (D (<50%))"
compound="COC1(c2cc(C)cc(-c3cn(C4CCN(CC5CCN(c6ccc(NC7CCC(=O)NC7=O)c(F)c6)CC5)CC4)c4cnc(NC(C)=O)cc34)n2)CCOC1 (stereo not shown)" test_value="A (A (>90%))"
compound="CNc1cc(N2CCc3c(CC4CCC5(CC4)CCN(C4CCN(C(=O)c6ccc(Cl)c(N7CCC(=O)NC7=O)c6)CC4(F)F)CC5)cccc32)nn2c(C(=O)N[C@@H]3C[C@@H]3F)cnc12 (stereo partly shown)" test_value="D (D (<50%))"
compound="CCNC(=O)c1nnc(Nc2ccc(CN3CC4(CCN(c5cccc6c5n(C)c(=O)n6C5CCC(=O)NC5=O)CC4(F)F)C3)cn2)cc1Nc1cccc(F)c1OC (stereo not shown)" test_value="C (C (75 to 50%))"
compound="CNc1cc(N2CCc3c(N4CCN(C5CCC6(CC5)CCN(c5ccc7c(c5)n(C)c(=O)n7C5CCC(=O)NC5=O)CC6)CC4)cccc32)nn2c(C(=O)NC3CC3)cnc12 (stereo not shown)" test_value="D (D (<50%))"
compound=CNc1cc(N2CCc3c(-c4ncc(CN5CC6(CCN(C(=O)c7cc(C)c(C)c(N8CCC(=O)NC8=O)c7)CC6(F)F)C5)cc4F)cccc32)nn2c(C(=O)N[C@@H]3C[C@@H]3F)cnc12 test_value="A (A (>90%))"
compound=CNc1cc(N2CCc3c(-c4ccc(CN5CC6(CCN(C(=O)c7ccc(Cl)c(N8CCC(=O)NC8=O)c7)CC6(F)F)C5)cn4)cccc32)nn2c(C(=O)N[C@H]3C[C@H](C)C3)cnc12 test_value="B (B (90 to >75%))"
compound="CNc1cc(N2CCc3c(CN4CCC(N5CCC6(CCN(C(=O)c7cc(Cl)c(C)c(N8CCC(=O)NC8=O)c7)CC6)CC5)C(F)(F)C4)cccc32)nn2c(C(=O)NC3CCC3OC)cnc12 (stereo not shown)" test_value="A (A (>90%))"
compound="CNc1cc(N2CCc3c(-c4ccc(CN5CCC(N6CCC7(CCN(c8cccc9c8n(C)c(=O)n9C8CCC(=O)NC8=O)CC7)CC6)C(F)(F)C5)cn4)cccc32)nn2c(C(=O)N[C@@H]3C[C@@H]3F)cnc12 (stereo partly shown)" test_value="C (C (75 to 50%))"
compound=CNc1cc(N2CCc3c(-c4ccc(CN5CCC6(CCN(Cc7ccc(Cl)c(N8CCC(=O)NC8=O)c7)CC6)C(F)(F)C5)cn4)cccc32)nn2c(C(=O)NC3CC3)cnc12 test_value="D (D (<50%))"
compound=CNc1cc(N2CCc3c(-c4ccc(N5CCC6(CCN(C(=O)c7ccc(Cl)c(N8CCC(=O)NC8=O)c7)CC6)CC5)cn4)cccc32)nn2c(C(=O)N[C@@H]3C[C@@H]3F)cnc12 test_value="D (D (<50%))"
compound=CNc1cc(N2CCc3c(N4CCN(CC5CCC6(CC5)CCN(C(=O)c5ccc(Cl)c(N7CCC(=O)NC7=O)c5)CC6)CC4)cccc32)nn2c(C(=O)NC3CC3)cnc12 test_value="D (D (<50%))"
compound="CNc1cc(N2CCc3c(-c4ncc(CN5CC6(CCN(C(=O)c7cc(N8CCC(=O)NC8=O)c(Cl)cc7F)CC6(F)F)C5)cc4F)cccc32)nn2c(C(=O)NC3CCC3OC)cnc12 (stereo not shown)" test_value="A (A (>90%))"
compound="CNc1cc(N2CCc3c(-c4ccc(CN5CCC6(CCN(C(=O)c7cc(C)c(Cl)c(N8CCC(=O)NC8=O)c7)CC6)C(F)(F)C5)cn4)cccc32)nn2c(C(=O)NC3CCCC3(F)F)cnc12 (stereo not shown)" test_value="C (C (75 to 50%))"
compound=CNc1cc(N2CCc3c(CN4CC[C@H](N5CCC6(CCN(C(=O)c7cc(N8CCC(=O)NC8=O)c(Cl)cn7)CC6)CC5)C(F)(F)C4)cc(F)cc32)nn2c(C(=O)N[C@@H]3CC[C@H]3OC)cnc12 test_value="B (B (90 to >75%))"
compound="CNc1cc(N2CCc3c(C#CCN4CCC(N5CC6(CN(C(=O)c7ccc(Cl)c(N8CCC(=O)NC8=O)c7)C6)C5)C(F)(F)C4)cccc32)nn2c(C(=O)N[C@@H]3C[C@@H]3F)cnc12 (stereo partly shown)" test_value="A (A (>90%))"
